molecular target: B1R receptor of the rat (rB1R) (Rattus norvegicus); construct: expressed in transfected cells; host or cells: CHO K1 cells (Chinese hamster ovary), stably transfected; assay: Functional FLIPR Ca2+ assay on the bradykinin 1 receptor, rat (rB1R CHO K1 cells); format: cell-based; conditions: test substance 10 μM; CHO K1 cells transfected with rat B1R gene; agonist Des-Arg9-bradykinin at EC80; % inhibition compared with maximum achievable inhibition; read-out: B1R antagonism, rat [10 μM] % inhibition
We begin with a simple list: items and their reported inhibition at 10 µM.
Readout Label: inhibition at 10 µM (%)

COc1cc(C)c(S(=O)(=O)N2CCCCC2COCCC(=O)N2CCc3sc(CN4CCN(C)CC4)cc3C2)c(C)c1 (centres unmarked) [Example 99]
98
COc1cc(C)c(S(=O)(=O)N2CCCCC2COCC(=O)N2CCc3onc(C(=O)N4CCCCC4)c3C2)c(C)c1 (centres unmarked) [Example 14]
99
Cc1ccc(C2c3ccsc3CCN2C(=O)C[C@@H](NS(=O)(=O)c2ccc3ccccc3c2)c2ccccc2)cc1 (some centres unmarked) [Example 20]
96
COc1cc(C)c(S(=O)(=O)N(C)CCOCC(=O)N2CCc3sc(CN4CCN(C)CC4)cc3C2)c(C)c1 [Example 51]
103
COc1cc(C)c(S(=O)(=O)N(CCOCC(=O)N2CCc3sc(CN4CCN(C)CC4)cc3C2)Cc2ccc3c(c2)OCOC3)c(C)c1 [Example 78]
98

###

Target: B1R receptor of the rat (rB1R) (Rattus norvegicus)
Construct: expressed in transfected cells; host or cells: CHO K1 cells (Chinese hamster ovary), stably transfected
Sequence (P97583 1-337): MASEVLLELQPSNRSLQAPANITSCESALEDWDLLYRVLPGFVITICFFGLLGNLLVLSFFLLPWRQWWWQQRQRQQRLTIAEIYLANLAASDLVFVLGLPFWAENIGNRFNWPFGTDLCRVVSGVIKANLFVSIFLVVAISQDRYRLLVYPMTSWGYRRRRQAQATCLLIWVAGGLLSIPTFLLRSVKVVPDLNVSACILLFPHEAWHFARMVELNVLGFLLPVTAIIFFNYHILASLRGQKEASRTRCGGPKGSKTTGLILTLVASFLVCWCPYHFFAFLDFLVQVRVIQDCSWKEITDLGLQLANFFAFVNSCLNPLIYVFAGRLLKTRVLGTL
Test: Functional FLIPR Ca2+ assay on the bradykinin 1 receptor, rat (rB1R CHO K1 cells)
Type: cell-based
Settings: test substance 10 μM; CHO K1 cells transfected with rat B1R gene; agonist Des-Arg9-bradykinin at EC80; % inhibition compared with maximum achievable inhibition; read-out: B1R antagonism, rat [10 μM] % inhibition
We begin with a simple list: items and their reported inhibition at 10 µM.
Readout Label: inhibition at 10 µM (%)

COc1cc(C)c(S(=O)(=O)N2CCCCC2COCC(=O)N2CCc3sccc3C2c2ccc(C)cc2)c(C)c1 (stereo not drawn)
104
COc1cc(C)c(S(=O)(=O)N(CCOCC(=O)N2CCc3sc(CN4CCN(C)CC4)cc3C2)c2ccccc2)c(C)c1
101
COc1cc(C)c(S(=O)(=O)N2CCCCC2CCCC(=O)N2CCc3sc(CN4CCN(C)CC4)cc3C2)c(C)c1 (stereo not drawn)
101

###

Biological target: B1R receptor of the rat (rB1R) (Rattus norvegicus)
Construct: expressed in transfected cells; host or cells: CHO K1 cells (Chinese hamster ovary), stably transfected
Experiment: Functional FLIPR Ca2+ assay on the bradykinin 1 receptor, rat (rB1R CHO K1 cells)
Type: cell-based
Settings: test substance 10 μM; CHO K1 cells transfected with rat B1R gene; agonist Des-Arg9-bradykinin at EC80; % inhibition compared with maximum achievable inhibition; read-out: B1R antagonism, rat [10 μM] % inhibition
From the text: The agonistic or antagonistic action of substances can be quantified on the bradykinin 1 receptor (B1R) of the human and rat species with ectopically expressing cell lines (CHO K1 cells) and with the aid of a Ca^2+-sensitive dyestuff (Fluo-4) in a fluorescent imaging plate reader (FLIPR). […] The agonistic or antagonistic action of substances can be determined on the bradykinin 1 receptor (B1R) of the human and rat species with the following assay. […]
Readout Label: inhibition at 10 µM (%)

O=C(COCC1CCCCN1S(=O)(=O)c1ccccc1C(F)(F)F)N1CCc2[nH]cnc2C1c1ccccc1 (stereo not drawn)
98
COc1cc(C)c(S(=O)(=O)N(C)CCOCC(=O)N2CCc3sc(CN4CCCCC4)cc3C2)c(C)c1
109
COc1cc(C)c(S(=O)(=O)N(CCOCC(=O)N2CCc3[nH]cnc3C2c2ccccc2)Cc2ccccc2)c(C)c1 (stereo not drawn)
100
CN1CCN(Cc2cc3c(s2)CCN(C(=O)COCC2CCCCN2S(=O)(=O)c2ccccc2C(F)(F)F)C3)CC1 (stereo not drawn)
96
COc1cc(C)c(S(=O)(=O)N(C)CCOCC(=O)N2CCc3nc(-c4ccncc4)sc3C2)c(C)c1
95
Cc1cc(S(=O)(=O)N2CCCCC2CCC(=O)N2CCc3sccc3C2c2ccccc2)c(C)cc1Cl (stereo not drawn)
81
COc1cc(C)c(S(=O)(=O)N(C)CCOCC(=O)N2CCc3onc(CN4CCCCC4)c3C2)c(C)c1
99
O=C(CCCC1CCCCN1S(=O)(=O)c1cccc2ccccc12)N1CCc2[nH]cnc2C1c1ccccc1 (stereo not drawn)
95
CN1CCN(Cc2cc3c(s2)CCN(C(=O)CCCC2CCCCN2S(=O)(=O)c2ccccc2C(F)(F)F)C3)CC1 (stereo not drawn)
103
Cc1cccc(Cl)c1S(=O)(=O)N(CCOCC(=O)N1CCc2sc(CN3CC(F)(F)C3)cc2C1)C1CC1
99
COc1cc(C)c(S(=O)(=O)N2CCCCC2COCC(=O)N2CCc3onc(-c4ccncc4)c3C2)c(C)c1 (stereo not drawn)
101
Cc1cccc(Cl)c1S(=O)(=O)N(CCOCC(=O)N1CCc2sc(CN3CCC3)cc2C1)C1CC1
105
COc1cc(C)c(S(=O)(=O)N(C)CCOCC(=O)N2CCc3nc(Cc4ccncc4)sc3C2)c(C)c1
99
COc1cc(C)c(S(=O)(=O)N2c3ccccc3OCC2COCC(=O)N2CCc3[nH]cnc3C2c2ccccc2)c(C)c1 (stereo not drawn)
94
O=C(CC1CCCCN1S(=O)(=O)c1cccc(C(F)(F)F)c1)N1CCc2nc(-c3ccncc3)sc2C1 (stereo not drawn)
97
COc1cc(C)c(S(=O)(=O)N2CCCCC2COCC(=O)N2CCc3onc(CN4CCCCC4)c3C2)c(C)c1 (stereo not drawn)
105
COc1cc(C)c(S(=O)(=O)N2CCCCC2COCC(=O)N2CCc3sccc3C2c2cccc(C)c2)c(C)c1 (stereo not drawn)
106
COc1cc(C)c(S(=O)(=O)N2CCCCC2CCCC(=O)N2CCc3[nH]cnc3C2c2ccccc2)c(C)c1 (stereo not drawn)
101

###

Target: human B1R receptor (hB1R) (Homo sapiens, UniProt P46663)
Construct: expressed in transfected cells; host or cells: CHO K1 cells (Chinese hamster ovary), stably transfected
Sequence (P46663 1-353): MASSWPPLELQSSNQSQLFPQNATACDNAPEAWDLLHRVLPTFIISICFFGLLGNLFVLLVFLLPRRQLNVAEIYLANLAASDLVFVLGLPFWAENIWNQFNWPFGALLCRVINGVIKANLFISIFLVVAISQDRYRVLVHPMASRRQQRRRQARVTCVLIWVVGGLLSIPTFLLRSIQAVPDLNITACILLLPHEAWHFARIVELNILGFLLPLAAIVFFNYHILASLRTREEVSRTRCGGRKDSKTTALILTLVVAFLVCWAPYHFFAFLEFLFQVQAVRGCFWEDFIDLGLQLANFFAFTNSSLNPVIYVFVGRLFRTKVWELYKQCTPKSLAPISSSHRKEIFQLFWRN
Assay: Functional FLIPR Ca2+ assay on the bradykinin 1 receptor, human (hB1R CHO K1 cells)
Type: cell-based
Conditions: test substance 10 μM; CHO K1 cells transfected with human B1R gene; agonist Lys-Des-Arg9-bradykinin at EC80; % inhibition compared with maximum achievable inhibition; read-out: B1R antagonism, human (10 μM] % inhibition
Readout Label: inhibition at 10 µM (%)

COc1cc(C)c(S(=O)(=O)N2CCCCC2CCC(=O)N2CCc3nc(-c4ccncc4)sc3C2)c(C)c1 (stereo not shown)
76
CN1CCN(Cc2cc3c(s2)CCN(C(=O)CC(NS(=O)(=O)c2ccc4ccccc4c2)c2ccccc2)C3)CC1 (racemic)
100
COc1cc(C)c(S(=O)(=O)N(C)CCOCC(=O)N2CCc3onc(CN4CCOCC4)c3C2)c(C)c1
99
COc1cc(C)c(S(=O)(=O)N2CCCC[C@H]2COCC(=O)N2CCc3sc(CN4CCCC4)cc3C2)c(C)c1
100
COc1cc(C)c(S(=O)(=O)N(C)CCOCC(=O)N2CCc3nc(-c4ccncc4)sc3C2)c(C)c1
99
COc1cc(C)c(S(=O)(=O)N2CCCCC2COCC(=O)N2CCc3nc(-c4ccncc4)sc3C2)c(C)c1 (stereo not shown)
100
Cc1cc(S(=O)(=O)N2CCCCC2CCC(=O)N2CCc3onc(CN4CCCCC4)c3C2)c(C)cc1Cl (stereo not shown)
93
